Measured Endpoint: melting point

Input line: For NC(=O)[C@H](Cc1cn(C(=O)NC2CCCCC2)cn1)NC(=O)[C@H]1CN(C2c3ccc(Cl)cc3CCc3cc(Br)cnc32)CCN1C(=O)NC1CCCCC1 (some centres unmarked) [Example 24] , what is its reported melting point?
Output line: 164 to 167 °C

Input line: Requested field: melting point. Item: Cn1cncc1CCNC(=O)[C@H]1CN(C2c3ccc(Cl)cc3CCc3cc(Br)cnc32)CCN1C(=O)CC1CCN(C(=O)OC(C)(C)C)CC1 (single isomer, unassigned) [Example 37]
Output line: 141.7 to 143.2 °C

Input line: Need melting point, item CC(C)n1cncc1CCNC(=O)[C@H]1CN(C2c3ccc(Cl)cc3CCc3cc(Br)cnc32)CCN1C(=O)OC(C)(C)C (some centres unmarked) [Example 42]
Output line: 98 to 101 °C

Input line: May I ask what melting point has been recorded for CC(C)(CCNC(=O)[C@H]1CN([C@H]2c3ccc(Cl)cc3CCc3cc(Br)cnc32)CCN1C(=O)Cc1cc[n+]([O-])cc1)n1ccnc1 [Example 6] ?
Output line: 115 to 117 °C

Input line: Dear colleague, I am looking for the recorded melting point of the following compound: Cn1cncc1CCNC(=O)[C@H]1CN(C2c3ccc(Cl)cc3CCc3cc(Br)cnc32)CCN1C(=O)Cc1cc[n+]([O-])cc1 (single isomer, unassigned) [Example 36]
Output line: 168.9 to 172.3 °C

====

# System: Human tumor cells
# Protocol Notes: Soft Agar Assay (anchorage-independent growth)
# Format: cell-based
# Particulars: range stated for the group unless single
Measured Endpoint: pIC50
Would you please state pIC50, meaning minus log10 of the concentration in mol/L, as a bare number?

Input line: Find the recorded pIC50 belonging to Cc1cn(CCCN(Cc2ccccc2)C(=O)[C@H]2CN([C@H]3c4ccc(Cl)cc4CCc4cccnc43)CCN2C(=O)OC2CCCCC2)cn1 [Example 225] and report it.
Output line: 8.70

====

Documented melting point across a set of molecules

Worked cases, answers included:
1. CC(C)(C)NC(=O)N1CCN([C@@H]2c3ccc(Cl)cc3CCc3cc(Br)cnc32)C[C@@H]1C(=O)NCCC(C)(C)n1ccnc1	157 to 159 °C
2. CC(C)NC(=O)N1CCN(C2c3ccc(Cl)cc3CCc3cc(Br)cnc32)C[C@@H]1C(=O)NCCc1cncn1C (single isomer, unassigned)	128.1 to 133.4 °C
3. O=C(NCCc1cnc(C(F)(F)F)[nH]1)[C@H]1CN(C2c3ccc(Cl)cc3CCc3cc(Br)cnc32)CCN1C(=O)NC1CCCCC1 (stereo partly shown)	173.8 °C

Input line: melting point for `CCn1cncc1CCN(CC1CC1)C(=O)[C@H]1CN([C@H]2c3ccc(Cl)cc3CCc3cccnc32)CCN1C(=O)OC(C)(C)C` ?
Output line: 89.1 to 96.5 °C

Input line: Which melting point reading was recorded for the molecule Cn1cncc1CCNC(=O)[C@H]1CN(C2c3ccc(Cl)cc3CCc3cc(Br)cnc32)CCN1C(=O)Cc1ccc(F)cc1 (single isomer, unassigned) ?
Output line: 132.5 to 139.7 °C

====

Measured Endpoint: melting point

Here are 8 compounds together with their reported answers.
1. Cn1cncc1CCN(Cc1ccccc1)C(=O)[C@H]1CN(C2c3ccc(Cl)cc3CCc3cc(Br)cnc32)CCN1C(=O)NC(C)(C)C (single isomer, unassigned) [Example 61]	127 to 130 °C
2. CN(C)C(=O)N1CCN(C2c3ccc(Cl)cc3CCc3cc(Br)cnc32)CC1C(=O)NCCC(C)(C)n1ccnc1 (stereo not drawn) [Example 18]	139 to 142 °C
3. NC(=O)[C@H](Cc1cnc[nH]1)NC(=O)[C@H]1CN(C2c3ccc(Cl)cc3CCc3cc(Br)cnc32)CCN1C(=O)NC1CCCCC1 (stereo partly drawn) [Example 25]	164 to 169 °C
4. O=C(NCCn1nc2ccccc2n1)[C@H]1CN(C2c3ccc(Cl)cc3CCc3cc(Br)cnc32)CCN1C(=O)NC1CCCCC1 (stereo partly drawn) [Example 291]	132 to 135 °C
5. CCn1cncc1CCN(CC1CC1)C(=O)[C@H]1CN([C@@H]2c3ccc(Cl)cc3CCc3cccnc32)CCN1C(=O)OC(C)(C)C [Example 308]	89.1 to 96.5 °C
6. Cn1cncc1CCNC(=O)[C@H]1CN(C2c3ccc(Cl)cc3CCc3cc(Br)cnc32)CCN1C(=O)CC1CCN(C(N)=O)CC1 (single isomer, unassigned) [Example 39]	148.1 to 150.4 °C
7. Cn1cncc1CCNC(=O)[C@H]1CN(C2c3ccc(Cl)cc3CCc3cc(Br)cnc32)CCN1C(=O)NC(C)(C)C (single isomer, unassigned) [Example 28]	128.1 to 135.2 °C
8. CC(C)(CCNC(=O)[C@H]1CN([C@H]2c3ccc(Cl)cc3CCc3cc(Br)cnc32)CCN1C(=O)CC1CCN(C(N)=O)CC1)n1ccnc1 [Example 8]	123 to 127 °C

Input line: Consider the compound shown here: CC(C)(CCNC(=O)[C@H]1CN(C2c3ccc(Cl)cc3CCc3cc(Br)cnc32)CCN1C(=O)OCc1ccccc1)n1ccnc1 (stereo partly drawn) [Example 3] What is its recorded melting point?
Output line: 103 to 106 °C

Input line: Entry under review: CC(C)(C)NC(=O)N1CCN([C@H]2c3ccc(Cl)cc3CCc3cc(Br)cnc32)C[C@@H]1C(=O)NCCC(C)(C)n1ccnc1 [Example 10] . Reported melting point?
Output line: 139 to 142 °C

Input line: // melting point lookup, key: CC(C)(C)NC(=O)N1CCN([C@H]2c3ccc(Cl)cc3CCc3cc(Br)cnc32)C[C@@H]1C(=O)NCCC1(n2ccnc2)CC1 [Example 12]
Output line: 136 to 139 °C

Input line: Which value of melting point has been reported for Cn1cncc1CCN(CC1CC1)C(=O)[C@H]1CN([C@H]2c3ccc(Cl)cc3CCc3cccnc32)CCN1C(=O)OC(C)(C)C [Example 306] in the records?
Output line: 100 to 114 °C
